Property: cell viability (log2); scope: individual compounds
Test system: A673/TR/shEF
assay.protocol: cell viability (LOESS-normalised, relative to median of negative controls) (log2 ratio); higher = more viable cells (less compound effect), active = hit call of the paper (over 3 MAD below the median)
condition.info: 0.926 µM; library screen: screen3; EWS-FLI1 expression: high (no doxycycline); treatment time: 72 h
Hit rate of the full screen: of about 3,200 compounds, about 300 (9.4%) showed activity. This excerpt belongs to a sample that is enriched for actives.
Write the number on its own, no unit after it.

cell viability (log2) measured on CC1=C2C[C@H]3[C@@H](CC=C4C[C@@H](O)CC[C@@]43C)[C@@H]2CC[C@]12O[C@@H]1C[C@H](C)CN[C@H]1[C@H]2C = -0.00313

Noted for CC(=O)O[C@H]1C[C@@H]2CC[C@@H]3[C@H](CC[C@@]4(C)[C@H]3C[C@H]([N+]3(C)CCCCC3)[C@@H]4OC(C)=O)[C@@]2(C)C[C@@H]1[N+]1(C)CCCCC1 : its cell viability (log2) reads 0.183

// cell viability (log2) value for CC[C@@]1(O)C(=O)OCc2c1cc1n(c2=O)Cc2cc3ccccc3nc2-1 : -3.61

// recorded cell viability (log2) for CN(C)[C@@H]1C(=O)C(C(N)=O)=C(O)[C@@]2(O)C(=O)C3=C(O)c4c(O)cccc4[C@@](C)(O)[C@H]3[C@H](O)[C@@H]12 : 0.119

Record summary for O=P1(N(CCCl)CCCl)NCCCO1 (stereo not given) : reported cell viability (log2) = 0.0846

---

Tested on: A673/TR/shEF
assay.protocol: cell viability (LOESS-normalised, relative to median of negative controls) (log2 ratio); higher = more viable cells (less compound effect), active = hit call of the paper (over 3 MAD below the median)
condition.info: 0.25 µM; library screen: screen1; EWS-FLI1 expression: high (no doxycycline); treatment time: 72 h
Among all 3,200 compounds or so, about 300 (9.4%) showed activity. Many of the other results were omitted from the sample, so actives are more common in it than they were.
property.label: cell viability (log2)
Lab note: write the figure by itself, no unit.

As a guide, the following entries are already answered.
molecule	cell viability (log2)
C[C@H]1O[C@@H](O[C@H]2[C@@H](O)C[C@H](O[C@H]3[C@@H](O)C[C@H](O[C@H]4CC[C@@]5(C)[C@H](CC[C@@H]6[C@@H]5CC[C@]5(C)[C@@H](C7=CC(=O)OC7)[C@@H](O)C[C@]65O)C4)O[C@@H]3C)O[C@@H]2C)C[C@H](O)[C@@H]1O	-0.13
C=C[C@H]1CN2CC[C@H]1C[C@@H]2[C@@H](OC(=O)OCC)c1ccnc2ccc(OC)cc12	0.12
COP(N)(=O)SC (stereo not drawn)	0.148
Cc1ccc2cc3c(ccc4ccccc43)c3c2c1CC3	0.0577
C[C@]12CC[C@H](O)C[C@H]1CC[C@@H]1[C@@H]2CC[C@]2(C)[C@@H](C3=CC(=O)OC3)[C@@H](O)C[C@]12O	0.0825

Sample C/C(O)=C(\C#N)C(=O)Nc1cc(Br)ccc1Br , system: A673/TR/shEF. Its cell viability (log2) is 0.124

Lab entry: A673/TR/shEF assay, molecule CO[C@H]1C[C@H](O[C@H]2CC[C@@]3(C)[C@H](CC[C@@H]4[C@@H]3CC[C@]3(C)[C@@H](C5=CC(=O)OC5)[C@@H](OC(C)=O)C[C@]43O)C2)O[C@@H](C)[C@@H]1O , cell viability (log2) = -0.578

Result for CNc1ccccc1C(=O)O , tested on A673/TR/shEF, cell viability (log2): 0.0696
